Hey, just so you know, these numbers are from PubChem BioAssay (NCI).

# Test system: UO-31 renal
# Method Description: NCI tumour cell line growth inhibition, 48 h
Measurement Label: log10 of TGI (log10 of the value in µM)
Please be aware that the numbers have been log10-transformed from TGI in µM.

Known log10 of TGI results, listed for orientation:
Cc1cc(C)nc(NS(=O)(=O)c2ccc(NNC(=O)c3cccc4c(NNc5ccc(S(=O)(=O)Nc6nc(C)cc(C)n6)cc5)c5ccccc5nc34)cc2)n1 : 1.71
O=C1c2ccccc2C(=O)C2C3c4ccccc4C(c4ccccc43)C12 (stereo not drawn) : 1.78
CC(C)=CCc1ccc(O)c(=O)cc1C(C)C : 0.59
O=C1/C(=C/c2ccc([N+](=O)[O-])o2)Oc2ccccc21 : 0.46
Cc1nc(N)sc1N=Nc1cc(Cl)c([N+](=O)[O-])cc1Cl : 1.83
CCCN1CN(c2ccccc2)C2(CCN(CCCC(=O)c3ccc(F)cc3)CC2)C1=O : 1.48

*Q* Please report the recorded log10 of TGI for Oc1ccc2ccccc2c1C(c1ccc(Cl)cc1)c1c(O)ccc2ccccc12 .
*A* 1.03

*Q* Please report the recorded log10 of TGI for O=c1oc2cc(O)ccc2cc1-c1nc2ccccc2s1 .
*A* 1.68

*Q* Please report the recorded log10 of TGI for Cn1cnc([N+](=O)[O-])c1Sc1nc2cccnc2s1 .
*A* 1.53

*Q* Please report the recorded log10 of TGI for CNc1cccnc1/C=N/NC(N)=S .
*A* 0.65

*Q* Please report the recorded log10 of TGI for CCN(CC)CCC(=O)c1ccccc1 .
*A* 1.97

* * *

Consider the following compounds and their measured TGI readings.
# Test system: EKVX NSCLC
# Method Description: NCI tumour cell line growth inhibition, 48 h
Express it in µM; write the number only.

O=c1oc2ccc(F)cc2c(=O)n1-c1ccc(Cl)cc1F : 8.14

*Q* Field: TGI (EKVX NSCLC). Entry: Cc1ccc(/C=C/C(=O)c2ccc(N)cc2)c(C)c1
*A* 38.8

* * *

# Tested on: HOP-92 NSCLC
# Method Description: NCI tumour cell line growth inhibition, 48 h; in the data active = GI50 below about 0.43 µM; inactive = the rest
Choose the fitting class; nothing outside active, inactive is accepted.

Field: example entries. Status: answers known.
CCSc1nc(N2CCCCC2)c2cn[nH]c2n1 : inactive
O[C@@H]1CCCN1Cc1cc2cc3c(cc2c2cc(OCc4ccccc4)ccc12)OCO3 : inactive

*Q* Fill in: this test's call for COc1ccc(Cn2cc3c(c2-c2ccc(O)cc2)CCc2cnoc2-3)cc1 is ___
*A* inactive

*Q* Fill in: this test's call for CCCCCCCCCCCCCCCCOC(=O)c1c(C)[nH]c(/C=C2\N=C(c3ccc[nH]3)C=C2OC)c1C is ___
*A* active

*Q* Fill in: this test's call for COc1cc2c3c(n(CCCCNC(=O)OCC4c5ccccc5-c5ccccc54)c(=O)c2cc1OC)-c1cc2c(cc1C3=O)OCO2 is ___
*A* inactive

*Q* Fill in: this test's call for CC(C)=CCc1ccc(O)c(=O)cc1C(C)C is ___
*A* inactive

*Q* Fill in: this test's call for N#Cc1c(NC(=O)c2cccc3ccccc23)sc2c1CCCC2 is ___
*A* inactive

*Q* Fill in: this test's call for COc1cc(-n2cc(-c3ccc(F)cc3)[nH]c2=S)cc(OC)c1OC is ___
*A* inactive

* * *

# Test system: NCI-H522 lung
# Method Description: NCI tumour cell line growth inhibition, 48 h
Consider the following molecules and their measured GI50 readings.

Known GI50 results, listed for orientation:
O=c1[nH]ccc2nc(-c3ccc(CN4CCC(c5nc(-c6ccccn6)n[nH]5)CC4)cc3)c(-c3ccccc3)cc12 : 22.2 µM
CO/N=C(\COc1ccc2c(c1)oc(=O)c1cc(OC)ccc12)c1cccc(OC)c1 : > 100 µM
CCCCCCCCCCCCCC(=O)OC(/C=C/C(C)C)C(O)C(O)C(OC)C(=O)NC1CCCCNC1=O (configuration not stated) : 5.27 µM
CCCCCCCCCCCCCCCCOC(=O)c1c(C)[nH]c(/C=C2\N=C(c3ccc[nH]3)C=C2OC)c1C : 5.69 µM
COc1cc(/C=C/C(=O)C(C(=O)/C=C/c2ccc(OC(=O)CCNc3nnc(C)s3)c(OC)c2)C(=O)CCNc2nnc(C)s2)ccc1OC(=O)CCNc1nnc(C)s1 : 2.49 µM

*Q* Please report the recorded GI50 for O=C1/C(=C/c2ccc(Cl)cc2)CN(Cc2cn(CCNc3ccnc4cc(Cl)ccc34)nn2)C/C1=C\c1ccc(Cl)cc1 .
*A* 0.52 µM

*Q* Please report the recorded GI50 for O=C1CSC(=S)N1Cc1cccnc1 .
*A* 2.22 µM

* * *

# Test system: SR leukemia
# Method Description: NCI tumour cell line growth inhibition, 48 h; in the data active = GI50 below about 0.43 µM; inactive = the rest
Choose the fitting class; nothing outside True (active), False (inactive) is accepted.

CC(C)=CCc1ccc(O)c(=O)cc1C(C)C : False

*Q* Fill in: this test's call for CCCCCCCCCCCCCC(=O)OC(/C=C/C(C)C)C(O)C(O)C(OC)C(=O)NC1CCCCNC1=O (stereo not given) is ___
*A* True

*Q* Fill in: this test's call for Cc1ccc(NSc2ccccc2[N+](=O)[O-])cc1 is ___
*A* True

*Q* Fill in: this test's call for Oc1ccccc1Nc1nc2ccccc2c2occc12 is ___
*A* False

* * *

# Tested on: SNB-19 CNS
# Method Description: NCI tumour cell line growth inhibition, 48 h
Consider the following molecules and their measured TGI readings.

Known TGI results, listed for orientation:
CC(C)=CCc1ccc(O)c(=O)cc1C(C)C : > 100 µM
CN1C(=O)c2cc([N+](=O)[O-])ccc2[C@H]2C(=O)c3cc4c(cc3[C@H]21)OCO4 : > 28.2 µM
COc1cc(S(=O)(=O)Nc2ccc(-c3csc(N4C(=O)C(C)SC4c4ccccc4O)n3)cc2)ccc1Cl (configuration not stated) : > 100 µM
CCN(CC)CCC(=O)c1ccccc1 : > 100 µM
COc1ccc(Cn2cnc3cc(C(=O)Nc4cccc5ccccc45)ccc32)c(OC)c1 : > 100 µM
O=C(CC/C(CC(=O)c1ccc(Cl)cc1)=N/O)Nc1ccc(Cl)c(Cl)c1 : > 100 µM
O=C1/C(=C/c2ccc([N+](=O)[O-])o2)Oc2ccccc21 : 18.6 µM
COc1ccc2c(c1)O[C@H]1c3ccc(O)cc3OC[C@@H]21 : > 100 µM

*Q* Please report the recorded TGI for CN(C)CS/C(N)=N\C(O)C(Cl)(Cl)Cl (configuration not stated) .
*A* > 100 µM

*Q* Please report the recorded TGI for c1cc2cc(c1)CN1CCNCCN(CCNCC1)Cc1cccc(c1)CN1CCNCCN(CCNCC1)C2 .
*A* > 100 µM

*Q* Please report the recorded TGI for CC(=O)[O-].CC(=O)[O-].O=C(N/N=C/c1cc(Cl)cc(Cl)c1[OH2+])c1ccncc1.[Zn+2] .
*A* > 100 µM

*Q* Please report the recorded TGI for NC(CCCNc1cccc(O)c1)C(=O)O (configuration not stated) .
*A* > 100 µM

* * *

# Tested on: HCC-2998 colon
# Method Description: NCI tumour cell line growth inhibition, 48 h; in the data active means GI50 below about 0.43 µM; inactive means the rest
Choose the fitting class; nothing outside 1.0 (active), 0.0 (inactive) is accepted.

Field: example entries. Status: answers known.
O=C(Nc1cccnc1)c1cccc([N+](=O)[O-])c1 : 0.0
CO/N=C(\COc1ccc2c(c1)oc(=O)c1cc(OC)ccc12)c1cccc(OC)c1 : 0.0
CC(=O)c1c(O)ccc2c(C)c(C(=O)O)oc12 : 0.0
O=C1CSC(=S)N1Cc1cccnc1 : 0.0
CCC[CH2][Sn]1([CH2]CCC)[O]C(=O)c2cccc(OC)c2[O]1 : 0.0

*Q* Fill in: this test's call for O=C(Nc1ccc(Cl)cc1)c1ccc([N+](=O)[O-])o1 is ___
*A* 0.0

*Q* Fill in: this test's call for COc1cc2c(cc1OCCCCCn1c(-c3ccco3)nc3ccccc31)N=C[C@@H]1CCCN1C2=O is ___
*A* 1.0

*Q* Fill in: this test's call for Cn1ccnc1C(=O)/C=C/c1ccc(C(=O)Nc2ccccc2O)cc1 is ___
*A* 0.0

*Q* Fill in: this test's call for O=C1/C(=C/c2ccc([N+](=O)[O-])o2)Oc2ccccc21 is ___
*A* 0.0

*Q* Fill in: this test's call for CS(=O)(=O)Nc1cccc(-c2ccc3c(NC(=O)C4CC4)n[nH]c3c2)c1 is ___
*A* 0.0

*Q* Fill in: this test's call for CC1CC(C)/C(=N/NC(N)=O)C(C(O)CC2CCC(=O)NC2=O)C1 (centres undefined) is ___
*A* 0.0

* * *

# Tested on: MOLT-4 leukemia
# Method Description: NCI tumour cell line growth inhibition, 48 h
Measurement Label: TGI (µM)
Express it in µM; write the number only.

CCCCCCCCCCCCCC(=O)OC(/C=C/C(C)C)C(O)C(O)C(OC)C(=O)NC1CCCCNC1=O (centres undefined) : 10.5
COc1cc(C2CC(c3ccc(Nc4ccnc5cc(Cl)ccc45)cc3)=NN2C=O)cc(OC)c1OC (centres undefined) : 9.21
N#Cc1c(-c2ccc(Cl)cc2)c(-c2ccc(Cl)cc2)nn(CCOC(=O)CCC(=O)O)c1=O : 41.3
CC(C)=CC(O)C/C(C)=C/CC/C(C)=C/CCC1(C)C(CCCO)/C(=C(/C)C=O)CCC1(C)O (centres undefined) : 83.2
COc1cc(/C=C/C(=O)C(C(=O)/C=C/c2ccc(OC(=O)CCNc3nnc(C)s3)c(OC)c2)C(=O)CCNc2nnc(C)s2)ccc1OC(=O)CCNc1nnc(C)s1 : 3.89
CC(=O)[O-].[Ni].c1ccc(/C(=N\Nc2ccccn2)c2ccccn2)cc1 : 24.3

*Q* Please report the recorded TGI for CCOC(=O)/C=C(\C(=O)OCC)n1cnc2c(N)ncnc21 .
*A* 6.89

*Q* Please report the recorded TGI for CCC[CH2][Sn]1([CH2]CCC)[O]C(=O)c2cccc(OC)c2[O]1 .
*A* 1.36

*Q* Please report the recorded TGI for O=C1/C(=C/c2ccc([N+](=O)[O-])o2)Oc2ccccc21 .
*A* 3.7
